// data source = the RNAGym collection of RNA variant scans (doi:10.7554/elife.80360)

B1: Hairpin Ribozyme (parent)
chain: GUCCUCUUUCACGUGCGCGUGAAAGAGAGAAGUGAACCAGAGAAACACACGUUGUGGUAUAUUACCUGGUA

# Variants of: B1
# protocol.description: self-cleavage, relative activity (ratio to wild type); higher = more cleavage; co-transcriptional
Could you label it label 1 if measured self-cleavage is 0.2 or higher, and label 0 otherwise?

Solved cases (8 shown):
A31U C66A | label 1
C3U C16A | label 1
U55G | label 1
U20A U60A | label 1
A61C C65G | label 0
U14A A23U | label 1
U33C U67G | label 1
A39G U55A | label 0

QUERY: Tell me whether self-cleavage is at least 0.2 here: C48A G68A
RESULT: label 0

QUERY: Tell me whether self-cleavage is at least 0.2 here: G17A A45C
RESULT: label 0

QUERY: Tell me whether self-cleavage is at least 0.2 here: C4U C66G
RESULT: label 1

QUERY: Tell me whether self-cleavage is at least 0.2 here: A28G A31U
RESULT: label 0

QUERY: Tell me whether self-cleavage is at least 0.2 here: A49C U55C
RESULT: label 1

QUERY: Tell me whether self-cleavage is at least 0.2 here: U9G C48U
RESULT: label 0

QUERY: Tell me whether self-cleavage is at least 0.2 here: C4U G27U
RESULT: label 0

QUERY: Tell me whether self-cleavage is at least 0.2 here: C37G A41G
RESULT: label 1

QUERY: Tell me whether self-cleavage is at least 0.2 here: A22G A47G
RESULT: label 0

QUERY: Tell me whether self-cleavage is at least 0.2 here: C10A G25A
RESULT: label 0

QUERY: Tell me whether self-cleavage is at least 0.2 here: A28C U53G
RESULT: label 1
